B1: PLK2 (parent)
chain: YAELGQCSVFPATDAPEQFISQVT

Variants of: B1
experimental_details: protein stability index of a GFP-peptide fusion (GPS, HEK-293T) (PSI 1-6); higher = more stable;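 also: lentivirally expressed fusions sorted by FACS into six bins by GFP to DsRed ratio, PSI derived from sequencing read proportions per bin multiplied by bin number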
condition_info: c terminus: a fixed tail appended
readout_name: protein stability index
Answers are plain numbers.

Consider the reported protein stability index for these variants:
Q6K
2.05
V9Y
2.02
V23L
1.91

// input: 8 variants below; output: protein stability index for each
1. F10T
2. E17F
3. I20H
4. A12E
5. L4Q
6. T24Q
7. G5K
8. F10Q

[3.47, 2.18, 2.96, 3.42, 3.62, 2.68, 2.02, 3.46]
